# assay_protocol: Part 1: pharmacokinetics of rimegepant 75 mg ODT alone or coadministered with cyclosporine 200 mg, 2-way crossover
# particulars: human, plasma, po, 75 mg, AUC0‐t, geometric least squares mean, part 1, rimegepant 75 mg ODT alone, single oral dose, fasted, N = 15
# Procedure: This phase 1, open‐label, randomized, single‐dose, 2‐way crossover, 2‐part, drug‐drug interaction study was conducted at a single center (Syneos Health, Québec, Canada). […] In each period, 20 blood samples for PK assessment were collected at the following time points: before dosing; 5, 10, 20, 30, 40, and 50 minutes after dosing; and 1, 1.5, 2, 2.5, 3, 4, 5, 6, 8, 12, 24 (day 2), 48 (day 3), and 72 (day 4) hours after dosing. […] The quantifiable range was 10 to 5000 ng/mL. […]
readout_name: AUC

> print(dat)
                           substance.smiles  readout.name      observed
1  N[C@@H]1c2cccnc2[C@H](OC(=O)N2CCC(n3c(=O)[nH]c4ncccc43)CC2)CC[C@H]1c1cccc(F)c1F           AUC  4090 ng·h/mL

----------
# assay_protocol: Part 2: pharmacokinetics of rimegepant 75 mg ODT alone or coadministered with quinidine 600 mg, 2-way crossover
# Assay type: in vivo, human
# particulars: human, plasma, po, 75 mg, part 2, rimegepant ODT 75 mg alone, single oral dose, N 12; read-out: AUC0‐t, arithmetic mean (percent coefficient of variation)
readout_name: AUC (ng·h/mL)

> print(dat)
                           substance.smiles  observed
1  N[C@@H]1c2cccnc2[C@H](OC(=O)N2CCC(n3c(=O)[nH]c4ncccc43)CC2)CC[C@H]1c1cccc(F)c1F      4520

----------
# assay_protocol: Part 1: pharmacokinetics of rimegepant 75 mg ODT alone or coadministered with cyclosporine 200 mg, 2-way crossover
# particulars: human, plasma, po
readout_name: Tmax (h)

> print(dat)
                           substance.smiles  readout.name  observed
1  N[C@@H]1c2cccnc2[C@H](OC(=O)N2CCC(n3c(=O)[nH]c4ncccc43)CC2)CC[C@H]1c1cccc(F)c1F          Tmax       2.5

----------
# assay_protocol: Part 1: pharmacokinetics of rimegepant 75 mg ODT alone or coadministered with cyclosporine 200 mg, 2-way crossover
# particulars: human, plasma, po, 75 mg, AUC0‐inf, arithmetic mean (percent coefficient of variation), part 1, rimegepant ODT 75 mg alone, single oral dose, N 15
readout_name: AUC

> print(dat)
                           substance.smiles  readout.name      observed
1  N[C@@H]1c2cccnc2[C@H](OC(=O)N2CCC(n3c(=O)[nH]c4ncccc43)CC2)CC[C@H]1c1cccc(F)c1F           AUC  4270 ng·h/mL

----------
# assay_protocol: Part 1: pharmacokinetics of rimegepant 75 mg ODT alone or coadministered with cyclosporine 200 mg, 2-way crossover
# particulars: human, in vivo, po, 75 mg
readout_name: Tmax (h)

> print(dat)
                                   molecule  readout.name  observed
1  N[C@@H]1c2cccnc2[C@H](OC(=O)N2CCC(n3c(=O)[nH]c4ncccc43)CC2)CC[C@H]1c1cccc(F)c1F [Rimegepant]          Tmax         2
